B1: CPEB3 Ribozyme (parent)
chain: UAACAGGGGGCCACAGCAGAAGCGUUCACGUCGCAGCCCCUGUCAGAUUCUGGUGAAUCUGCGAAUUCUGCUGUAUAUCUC

Variants of: B1
method_description: self-cleavage, relative activity (ratio to wild type); higher = more cleavage; in vitro, sequencing
result_type: self-cleavage
Respond numerically, and do not add a unit to the figure.

Worked cases, self-cleavage given:
A13G G36A ... 0.35
G22A U60C ... 0.28
A3U A45G ... 1.03

Data request: Fill blank: measured self-cleavage of the variant G19U G42A is ____.
Data returned: 0.18

Data request: Also check G22A C38U
Data returned: 0.17

Data request: Also check U58C U72A
Data returned: 0.39

Data request: Also check G6A C17A
Data returned: 0.54

Data request: Also check A35G U60C
Data returned: 1.03

Data request: Also check A57U U80A
Data returned: 0.55

Data request: Also check A35G U66C
Data returned: 1.17

Data request: Also check A13C U67C
Data returned: 0.19

Data request: Also check U76C U78C
Data returned: 1.01

Data request: Also check A21G U76A
Data returned: 0.55
